STUDY TARGET: T1, CTLA-4-hFc (immunogen A; hFc-labeled CTLA-4 extracellular domain protein) (human, UniProt P16410 36-161)
T1 construct: range 36-161; Made in HEK293 cells, purified on protein A; also called CLTA-4-hFc; CTLA-4 protein; not shown: human IgG Fc fragment (hFc) of the pCpC vector
T1 sequence (looked up): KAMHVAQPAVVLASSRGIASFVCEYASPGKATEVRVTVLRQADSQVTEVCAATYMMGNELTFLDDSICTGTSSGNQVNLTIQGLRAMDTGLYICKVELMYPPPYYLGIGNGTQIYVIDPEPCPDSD
METHOD NOTES: ELISA, coated CTLA-4-hFc, competitor biotin-B7.2-hFc
QUANTITY NAME: Inhibition rate (%) at 7.4 nM
Numbers only; they are read as %.

Look over these answered cases.
| BINDER | ENDPOINT UNIT | Inhibition rate (%) at 7.4 nM |
| --- | --- | --- |
| 40C4C6 (chimeric antibody purified from hybridoma supernatant) (antibody, V domains shown, also called mAb09; mAb009) VH: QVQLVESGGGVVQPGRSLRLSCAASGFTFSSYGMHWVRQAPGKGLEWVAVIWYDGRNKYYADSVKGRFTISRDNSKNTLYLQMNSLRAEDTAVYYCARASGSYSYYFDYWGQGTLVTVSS VL: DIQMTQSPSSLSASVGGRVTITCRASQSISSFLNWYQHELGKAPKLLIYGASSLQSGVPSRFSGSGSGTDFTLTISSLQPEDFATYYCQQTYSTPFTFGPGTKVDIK | % | 76.6 |
| 92C8B6 (chimeric antibody purified from hybridoma supernatant) (antibody, V domains shown, also called mAb42; mAb042) VH: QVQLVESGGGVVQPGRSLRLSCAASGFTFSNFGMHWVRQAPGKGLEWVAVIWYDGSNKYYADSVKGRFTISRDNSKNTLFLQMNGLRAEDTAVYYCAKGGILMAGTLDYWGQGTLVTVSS VL: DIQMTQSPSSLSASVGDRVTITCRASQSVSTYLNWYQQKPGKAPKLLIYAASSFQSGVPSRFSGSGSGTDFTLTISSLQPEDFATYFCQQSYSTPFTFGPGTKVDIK | % | 95 |
| 97A8D1 (chimeric antibody purified from hybridoma supernatant) (antibody, V domains shown, also called mAb49; mAb049) VH: QVQLVESGGGVVQPGRSLRLSCVASGFTFNNYGMNWVRQAPGKGLEWVAVIWYGGRNKFYADSVKGRFTISRDNSKNTLYLEMNSLRAEDTAVYYCARADWGGWFDPWGQGTLVTVSS VL: EIVLTQSPGTLSLSPGERATLSCRASQSVSSTYLAWYQQKPGQAPRLLIHGAFSRATGIPDRFSGSGSGPDFTLTISRLEPEDFAVYYCQQYGTSPFTFGPGTKVDIK | % | 95 |

What does the data say about its Inhibition rate (%) at 7.4 nM? Entry: 31C12F3 (chimeric antibody purified from hybridoma supernatant) (antibody, V domains shown, also called mAb010) VH: QVQLVESGGGVVQPGRSLILSCAASGFTFSSYGMHWVRQAPGKGLEWVAVVWYDGSNKYYADSVKGRFTISRDNSKNTLYLQMSSLRAEDTAVYYCARGGIVVPGLFEYWGQGSLVTVSS VL: DIQMTQSPSSLSASVGDRVAITCRTSQSISNLLNWYQQKPGKAPELLIYAPSSFQSGVPSRFRGSGSGTDFTLTISSLQPEDFATYYCQQSYSTPFTFGPGTKVDIK
89.9
